assay: self-splicing fitness, log relative to wild type (ln ratio); higher = more splicing; Tetrahymena group I intron in knt gene, E. coli kanamycin selection, DiMSum; sequences stand for … in CUCUCU…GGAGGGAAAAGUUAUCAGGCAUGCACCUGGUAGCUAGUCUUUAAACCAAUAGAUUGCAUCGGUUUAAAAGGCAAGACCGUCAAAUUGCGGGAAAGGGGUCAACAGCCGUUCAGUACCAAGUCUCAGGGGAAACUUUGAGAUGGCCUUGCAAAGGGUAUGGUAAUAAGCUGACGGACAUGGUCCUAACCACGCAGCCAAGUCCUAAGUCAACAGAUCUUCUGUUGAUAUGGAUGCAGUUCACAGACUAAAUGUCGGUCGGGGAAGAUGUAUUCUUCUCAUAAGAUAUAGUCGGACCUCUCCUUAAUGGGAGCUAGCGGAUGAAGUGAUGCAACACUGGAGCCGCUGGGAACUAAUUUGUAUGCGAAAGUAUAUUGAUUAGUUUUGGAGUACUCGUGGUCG; settings: 30 °C;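 note: selection with 25 µg/mL kanamycin versus none on LB agar overnight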
Each record here notes measured self-splicing fitness (ln).
Please reply with the value in numeric form only.

Example results:
GGGGAGCAAUAUUACGAAGU	-2.04
UGGGAGCAAUAUUACGCGGU	-3.43
CAGCAGCAAUAUUACGCAAG	-1.53
CGCUAGCAAUAUUACGUAAG	-0.553
AACCAGCAAUAUUACGUCAC	-3.92
CAGGAGCAAUAUUACGUGCA	-3.17
UGCUAGCAAUAUUACGCAGA	-4.03
CAGCAGCAAUAUUACGUUAU	-3.77
CCAGAGCAAUAUUACGACCG	-0.53
AUCAAGCAAUAUUACGAGCC	-3.07

Consider "GGAAAGCAAUAUUACGUUAC" . Its measured self-splicing fitness (ln) is -2.63

Consider "AUAAAGCAAUAUUACGUAUC" . Its measured self-splicing fitness (ln) is -3.77

Consider "GAUGAGCAAUAUUACGUAAG" . Its measured self-splicing fitness (ln) is -3.37

Consider "AGGCAGCAAUAUUACGCUCU" . Its measured self-splicing fitness (ln) is -2.31

Consider "UGUGAGCAAUAUUACGAUAU" . Its measured self-splicing fitness (ln) is -2.31

---

test: self-splicing fitness, log relative to wild type (ln ratio); higher = more splicing; Tetrahymena group I intron in knt gene, E. coli kanamycin selection, DiMSum; sequences stand for … in CUCUCU…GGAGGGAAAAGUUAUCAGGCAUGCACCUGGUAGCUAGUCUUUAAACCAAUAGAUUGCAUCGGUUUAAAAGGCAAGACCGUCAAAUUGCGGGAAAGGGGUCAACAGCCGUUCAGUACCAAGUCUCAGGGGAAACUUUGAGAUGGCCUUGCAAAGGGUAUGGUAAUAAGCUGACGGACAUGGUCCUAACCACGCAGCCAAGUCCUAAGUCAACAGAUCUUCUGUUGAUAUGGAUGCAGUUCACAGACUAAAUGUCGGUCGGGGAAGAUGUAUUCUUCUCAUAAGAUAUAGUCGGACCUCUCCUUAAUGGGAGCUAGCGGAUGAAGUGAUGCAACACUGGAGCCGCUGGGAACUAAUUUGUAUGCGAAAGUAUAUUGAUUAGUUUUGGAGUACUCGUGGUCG; settings: 37 °C
Each record here notes measured self-splicing fitness (ln).
Please reply with the value in numeric form only.

Example results:
CCAGAGCAAUAUUACGCAAC	-2.94
UUAUAGCAAUAUUACGACCG	0.446
AGUAAGCAAUAUUACGACAA	-0.886
CGCCAGCAAUAUUACGGGAU	-2.32

Consider "CGACAGCAAUAUUACGCCUU" . Its measured self-splicing fitness (ln) is -1.61

Consider "UACUAGCAAUAUUACGAAAA" . Its measured self-splicing fitness (ln) is -2.26

Consider "UAGAAGCAAUAUUACGACAC" . Its measured self-splicing fitness (ln) is -2.07
